B1: CPEB3 Ribozyme (parent)
chain: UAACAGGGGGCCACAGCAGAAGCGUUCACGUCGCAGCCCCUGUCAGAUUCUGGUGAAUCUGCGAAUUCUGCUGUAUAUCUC

- Variants of: B1
- MEASUREMENT NOTES: self-cleavage, relative activity (ratio to wild type); higher = more cleavage; in vitro, sequencing
MEASUREMENT TYPE: self-cleavage

mutation_key="G46A U48C" reported_value=0.26
mutation_key="A35C U60C" reported_value=0.48
mutation_key="A21G G36U" reported_value=0.07
mutation_key="U25C U43G" reported_value=0.35
mutation_key="C37U A45G" reported_value=0.5
mutation_key="G46U U72G" reported_value=0.25
mutation_key="A21G G22A" reported_value=0.17
mutation_key=C12U reported_value=1.25
mutation_key="A5G G63U" reported_value=0.95
mutation_key="G8A U49C" reported_value=0.2
mutation_key="G55A U74A" reported_value=1.18
mutation_key="A20G U41C" reported_value=0.89
mutation_key="C4A G30A" reported_value=0.39
mutation_key="A13C U60C" reported_value=0.51
mutation_key="C40G U43C" reported_value=0.16
mutation_key="G9A C32U" reported_value=0.2
mutation_key="A65G U67G" reported_value=0.16
mutation_key="A28G U67G" reported_value=0.17
mutation_key="A15G A64U" reported_value=0.33
mutation_key="A45G A64G" reported_value=0.65
mutation_key="U49C G70U" reported_value=0.2
mutation_key="U51A G52U" reported_value=1.16

Source listed as the RNAGym collection of RNA variant scans (doi:10.1093/nar/gkz1192).
